B1: ZNF511 (parent)
chain: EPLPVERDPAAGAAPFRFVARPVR

- Variants of: B1
- Protocol: protein stability index of a GFP-peptide fusion (GPS, HEK-293T) (PSI 1-6); higher = more stable;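 further: lentivirally expressed fusions sorted by FACS into six bins by GFP to DsRed ratio, PSI derived from sequencing read proportions per bin multiplied by bin number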
- Measurement Context: c terminus: a fixed tail appended
Measured Metric: protein stability index
Please give the numeric answer without any surrounding text.

Input line: Field request: protein stability index | item: EWLPVERDPAAGAAPFRFVARPVR [P2W]
Output line: 1.8

Input line: Field request: protein stability index | item: QPLPVERDPAAGAAPFRFVARPVR [E1Q]
Output line: 2.9

Input line: Field request: protein stability index | item: EPLRVERDPAAGAAPFRFVARPVR [P4R]
Output line: 3.23

Input line: Field request: protein stability index | item: EPLPVERDDAAGAAPFRFVARPVR [P9D]
Output line: 2.38

Input line: Field request: protein stability index | item: EPLPVEADPAAGAAPFRFVARPVR [R7A]
Output line: 2.25

Input line: Field request: protein stability index | item: EPLPVERDPAAGAAPFRFVARVVR [P22V]
Output line: 2.6

Input line: Field request: protein stability index | item: EPLPVERDPAAGAAPFRFVARPVA [R24A]
Output line: 2.2

Input line: Field request: protein stability index | item: EPLPVERDPASGAAPFRFVARPVR [A11S]
Output line: 2.43

Input line: Field request: protein stability index | item: EPLPVERDPIAGAAPFRFVARPVR [A10I]
Output line: 2.44

Input line: Field request: protein stability index | item: EPLPVERDPAAGAAPFRHVARPVR [F18H]
Output line: 4.71

Input line: Field request: protein stability index | item: EPAPVERDPAAGAAPFRFVARPVR [L3A]
Output line: 2.46

// data source = the supplement of paper PMC10567573
